Where do the numbers come from? From paper PMC6687188.

Reported MEAN CpLDH INHIBITION (%), recombinant CpLDH protein (Cryptosporidium parvum, UniProt Q9GT92, F198L/K295E/R251K).
Numeric answer only, unit % assumed.

Req: Would you kindly share the measured MEAN CpLDH INHIBITION (%) for CCN(CC)CCNc1ccc2nc(C)n3c4ccc(OC)cc4c(=O)c1c23 [NSC637993] ?
Resp: -46.33

Req: # iterate: COc1ccc(NC2=NCCO2)c2c1CCCC2 [NSC663996]
Resp: -51.63

Req: # iterate: COC(=O)C1(C)CCCC2(C)C3CCC4CC3(C=C4CO)CCC12 (centres unmarked) [NSC360861]
Resp: -29.11

Req: # iterate: CC1=C(C(=O)NCc2ccccc2)C(c2ccccc2O)C(C(=O)NCc2ccccc2)=C(C)N1 [NSC634928]
Resp: -21.25

Req: # iterate: CC(=O)c1c(O)c(C)c(O)c2c1OC1=CC(=O)C(C(C)=O)C(=O)C12C (centres unmarked) [NSC5890]
Resp: -32.64

----------
Reported MEAN CpLDH INHIBITION (%), recombinant CpLDH protein (Cryptosporidium parvum, UniProt Q9GT92, F198L/K295E/R251K).

Req: Would you kindly share the measured MEAN CpLDH INHIBITION (%) for Cl.O=C1c2cccc(NCCCNCCO)c2C(=O)c2cccc(NCCCNCCO)c21 ?
Resp: -2.96%

Req: # iterate: Cn1c(=O)[nH]c2nncnc2c1=O
Resp: -38.11%

Req: # iterate: COc1ccc2nc(C)cc(NCCCCCCCCCNc3cc(C)nc4ccc(OC)cc34)c2c1
Resp: -19.54%

Req: # iterate: CC(=O)O[C@@H]1C[C@H]2O[C@@H]3C=C(C)CC[C@]3(C)[C@]1(C)[C@]21CO1
Resp: -8.12%

Req: # iterate: CC(C)(C)N(Cc1ccc2c(c1)OCO2)C(=O)/C=C\[S+]([O-])c1ccccc1 (centres unmarked)
Resp: -49.87%

Req: # iterate: COC(=O)[C@@H]1[C@H](O)[C@H](C)[C@H](O)[C@H](C)/C=C\C=C(/C)C(=O)Nc2c(C)c(OC(C)=O)c3c(c2O)C(=O)C(C)=C2OCOC(=C23)/C(C)=C/[C@@](C)(O)[C@H](O)[C@@H](C)[C@H]1O
Resp: -27.23%

Req: # iterate: C[n+]1cc2cc(O)c(O)cc2c2ccc3cc(O)c(O)cc3c21.Cl.[Cl-].c1ccncc1
Resp: -44.28%

Req: # iterate: Cc1ccc2c(ccc(C=Cc3ccc(O)c4ncccc34)[n+]2C)c1
Resp: -37.65%

Req: # iterate: CC(C)=CCC(OC(=O)C=C(C)C)C1=CC(=O)c2c(O)ccc(O)c2C1=O (centres unmarked)
Resp: -8.72%

Req: # iterate: CCCCCCCCCc1c(Cl)nc(Cl)nc1Cl
Resp: -23.70%

Req: # iterate: COc1ccc(-c2cc(-c3ccccc3)nc3c2CC(=O)Nc2ccccc2-3)cc1OC
Resp: -0.10%

Req: # iterate: COc1ccc(OC)c(-c2cc(=O)c3c(OC)c(OC)c(OC)c(OC)c3o2)c1
Resp: -64.35%

Req: # iterate: CCOC(OCC)C(CC)[Se]c1ccccc1[N+](=O)[O-] (centres unmarked)
Resp: -24.52%

Req: # iterate: COc1ccc2c(c1)CCc1c-2n[nH]c1-c1[nH]nc2c1CCc1cc(OC)ccc1-2
Resp: -16.04%

Req: # iterate: OCC1OC(n2cnc3c(SCc4ccccc4)ncnc32)C(O)C1O (centres unmarked)
Resp: -4.046%

Req: # iterate: COC1(O)C(=O)c2ccccc2OC1(OC)c1ccccc1 (centres unmarked)
Resp: -17.43%

Req: # iterate: O=C([O][Hg][CH2]C1COC([CH2][Hg][O]C(=O)c2ccccc2)CO1)c1ccccc1 (centres unmarked)
Resp: -5.35%

Req: # iterate: Cc1nc(-n2nc(-c3ccccc3)cc2-c2ccccc2)sc1C(=O)/C=C/c1ccc(Cl)c(Cl)c1
Resp: -6.68%

Req: # iterate: N#CC(=C1C=CC(=NO)C=C1)c1ccc(Cl)cc1
Resp: -30.77%

Req: # iterate: COc1cc([C@@H]2c3cc4c(cc3C[C@H]3COC(=O)[C@@H]32)OCO4)cc(OC)c1OC
Resp: -8.59%

Req: # iterate: CSc1ccc(NC(=O)CCl)cc1
Resp: -7.16%

Req: # iterate: CCC12C[N+]3([O-])CCc4c([nH]c5ccccc45)C(C(=O)OC)(c4cc5c(cc4OC)N(C)C4C(O)(C(=O)OC)C(OC(C)=O)C6(CC)C=CCN7CCC54C76)CC(C3)C1O2 (centres unmarked)
Resp: -126.27%

Req: # iterate: CC(C)(O)CCC(O)C(C)(O)C1CCC2(O)C3=CC(=O)C4(O)CC(O)C(O)CC4(C)C3CCC12C.CC(C)(O)CCC(O)C(C)(O)C1CCC2(O)C3=CC(=O)C4CC(O)C(O)CC4(C)C3CCC12C (centres unmarked)
Resp: -100.16%

Req: # iterate: CC[C@](C)(O)C(=O)O[C@H]1C(=O)O[C@@H]2C[C@H]3C(C)=CC(=O)[C@@H](O)[C@]3(C)[C@H]3[C@@]4(O)OC[C@]32[C@@H]1[C@@H](C)[C@H]4O
Resp: -161.16%

Req: # iterate: Cc1ccc(/C=C2\CNC/C(=C\c3ccc(C)cc3)C2=O)cc1.Cl
Resp: -15.78%

Req: # iterate: C=C(C)C(=O)OC1CCC2(C)C(CCC3C2CCC2(C)C(c4ccc(=O)oc4)CC4OC432)C1 (centres unmarked)
Resp: -57.63%

Req: # iterate: CC(=O)OC(C)(C)/C=C/C(=O)[C@](C)(O)[C@H]1[C@H](O)C[C@@]2(C)[C@@H]3CC=C4[C@@H](C[C@H](O)C(=O)C4(C)C)[C@]3(C)C(=O)C[C@]12C
Resp: -57.10%

Req: # iterate: Cc1ccc(S(=O)(=O)[O-])cc1.Cc1ccc(S(=O)(=O)[O-])cc1.Cn1c(-c2ccc(/C=C/C=N/NC(=O)c3ccc(C(=O)N/N=C/C=C/c4ccc(-c5c[n+]6ccccc6n5C)cc4)cc3)cc2)c[n+]2ccccc12
Resp: -164.45%

Req: # iterate: COc1cccc2c1C(=O)c1c(O)c3c(c(O)c1C2=O)C[C@@](O)(C(C)=O)C[C@@H]3OC1CC(N(Cc2ccccc2)Cc2ccccc2)C(O)C(C)O1.Cl (some centres unmarked)
Resp: -40.28%

----------
Reported MEAN CpLDH INHIBITION (%), recombinant CpLDH protein (Cryptosporidium parvum, UniProt Q9GT92, F198L/K295E/R251K).
Numeric answer only, unit % assumed.

Req: Would you kindly share the measured MEAN CpLDH INHIBITION (%) for COC(C(=O)C(O)C(C)O)C1Cc2cc3cc(OC4CC(OC5CC(O)C(O)C(C)O5)C(O)C(C)O4)c(C)c(O)c3c(O)c2C(=O)C1OC1CC(OC2CC(OC3CC(O)C(OC)C(C)O3)C(O)C(C)O2)C(O)C(C)O1 (stereo not shown) ?
Resp: -38.98

Req: # iterate: N#CC(c1ccccc1)N(CCCCCCN(C(=O)c1ccccc1)C(C#N)c1ccccc1)C(=O)c1ccccc1 (stereo not shown)
Resp: -15.26

Req: # iterate: O=C1Nc2ccc(Br)cc2/C1=C/C(=O)c1ccccc1
Resp: -25.63

Req: # iterate: O=C1C=C(Nc2ccccc2C(=O)CC(=O)C(=O)Nc2ccc(Cl)c(Cl)c2)c2ccccc2C1=O
Resp: -16.86

Req: # iterate: Nc1nc(N)c(N=Nc2ccccc2)c(=O)[nH]1
Resp: -51.63

Req: # iterate: COc1cc(/C=C2\S/C(=N/Nc3nc(-c4ccc(Br)cc4)cs3)NC2=O)cc(OC)c1OC
Resp: -150.87

Req: # iterate: CCNC(=O)OCc1c(COC(=O)NCC)c(-c2ccc(Cl)c(Cl)c2)n2c1CCC2
Resp: -49.53

----------
Reported MEAN CpLDH INHIBITION (%), recombinant CpLDH protein (Cryptosporidium parvum, UniProt Q9GT92, F198L/K295E/R251K).
Numeric answer only, unit % assumed.

Req: Would you kindly share the measured MEAN CpLDH INHIBITION (%) for COc1ccc2nc3cc([N+](=O)[O-])ccc3c(NNc3ccccc3)c2c1 ?
Resp: -7.48

Req: # iterate: CO[C@H]1/C=C/O[C@@]2(C)Oc3c(C)c(O)c4c(c3C2=O)C(=O)C=C(NC(=O)/C(C)=C\C=C\[C@H](C)[C@H](OC=O)[C@@H](C)[C@@H](O)[C@@H](C)[C@H](OC(C)=O)[C@@H]1C)C4=O
Resp: -42.34

Req: # iterate: N#Cc1ccccc1NC(=O)C(=O)C(C(=O)c1ccccc1F)C1OC(=O)c2ccccc21 (stereo not drawn)
Resp: -7.97
